The values you see were collected from patent US20260209368A1.

- tgt: T1, TL1A in human blood (human, UniProt O95150 72-251, limits assumed)
- T1 sequence (looked up): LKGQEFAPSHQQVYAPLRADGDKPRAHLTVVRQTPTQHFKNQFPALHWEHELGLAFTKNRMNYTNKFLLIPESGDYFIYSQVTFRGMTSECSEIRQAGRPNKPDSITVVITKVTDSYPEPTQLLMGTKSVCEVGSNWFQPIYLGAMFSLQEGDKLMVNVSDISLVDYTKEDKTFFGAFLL
- assay-summary: cell-based or functional assay
endpoint-label: % Inhibition at 1 nM Ig; inhibition of interferon gamma release in human blood (%)
Give the quantity in %, number only.

# count of solved cases: 5
1. A217 (antibody, V domains shown) VH: QVQLVQSGAEVKKPGASVKVSCKASGFDIQDTYMHWVKQRPGQGLEWMGRIDPASGHTKYDPKFQVRVTITRDTSTSTVYMELSSLRSEDTAVYYCARSGGLPDVWGQGTTVTVSS VL: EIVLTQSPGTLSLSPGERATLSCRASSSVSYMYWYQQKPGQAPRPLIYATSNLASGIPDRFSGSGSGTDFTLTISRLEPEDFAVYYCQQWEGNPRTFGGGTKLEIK    46
2. A147 (antibody, V domains shown) VH: QVQLVQSGAEVKKPGASVKVSCKASGFDIQDTYMHWVKQRPGQGLEWMGRIEPASGHIKYDPKFQGRVTMTRDTSTSTVYMELSSLRSEDTAVYYCARSGGLPDWWGQGTTVTVSS VL: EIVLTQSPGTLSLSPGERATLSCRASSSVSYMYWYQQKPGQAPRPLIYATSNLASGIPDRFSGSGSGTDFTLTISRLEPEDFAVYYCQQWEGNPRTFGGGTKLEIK    51.3
3. A220 (antibody, V domains shown) VH: QVQLVQSGAEVKKPGASVKVSCKASGFDIQDTYMHWVKQRPGQGLEWMGRIDPASGHTKYDPKFQVRVTMTRDTSTSTAYLELSSLRSEDTAVYYCARSGGLPDVWGQGTTVTVSS VL: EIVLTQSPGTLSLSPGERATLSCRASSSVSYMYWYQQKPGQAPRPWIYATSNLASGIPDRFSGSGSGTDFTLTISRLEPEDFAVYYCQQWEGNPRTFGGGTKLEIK    36.9
4. A212 (antibody, V domains shown) VH: QVQLVQSGAEVKKPGASVKVSCKASGFDIQDTYMHWVRQRPGQGLEWIGRIDPASGHTKYDPKFQVRATITTDTSTSTAYLELSSLRSEDTAVYYCARSGGLPDVWGQGTTVTVSS VL: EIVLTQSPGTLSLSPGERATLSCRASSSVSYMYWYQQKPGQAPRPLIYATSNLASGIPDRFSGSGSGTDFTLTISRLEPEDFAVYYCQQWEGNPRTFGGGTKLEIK    46.8
5. A213 (antibody, V domains shown) VH: QVQLVQSGAEVKKPGASVKVSCKASGFDIQDTYMHWVRQRPGQGLEWMGRIDPASGHTKYDPKFQVRVTITTDTSTSTVYMELSSLRSEDTAVYYCARSGGLPDVWGQGTTVTVSS VL: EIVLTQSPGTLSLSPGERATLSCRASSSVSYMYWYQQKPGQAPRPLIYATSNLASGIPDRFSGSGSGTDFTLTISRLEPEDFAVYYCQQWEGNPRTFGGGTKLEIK    48.6

Next item in the queue.
Ask: Which % Inhibition at 1 nM Ig; inhibition of interferon gamma release in human blood is listed for A219 (antibody, V domains shown) VH: QVQLVQSGAEVKKPGASVKVSCKASGFDIQDTYMHWVKQRPGQGLEWMGRIDPASGHTKYDPKFQVRVTITRDTSTSTVYLELSSLRSEDTAVYYCARSGGLPDVWGQGTTVTVSS VL: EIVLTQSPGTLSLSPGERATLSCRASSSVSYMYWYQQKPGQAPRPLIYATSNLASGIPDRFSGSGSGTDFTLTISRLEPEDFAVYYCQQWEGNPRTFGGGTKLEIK ?
Reply: 59.8
